Consider the following molecules; for each one, report its pKi.
Target: Agonisten Bindungsstelle
Experiment: [³H]cis-methyldioxolane binding study (muscarinic agonist binding site)
Conditions: [³H]Ligand cis-Methyldioxolan
Schema: pKi number; meaning minus log10 of the concentration expressed in molar units.

Using Agonisten Bindungsstelle as the test system, report measured pKi of CCc1cc2c(o1)CN(C)CC2 .
7.28

With Agonisten Bindungsstelle as the test system, provide measured pKi for this molecule: CCCc1cc2c(o1)CN(C)CC2
7.28

Return reported pKi for target or system Agonisten Bindungsstelle, item Cc1cc2c(o1)CN(C)CC2 .
7.09

For Agonisten Bindungsstelle, give pKi of the listed molecule: CCCc1cc2c(o1)CNCC2
6.80

Give pKi for this entry on Agonisten Bindungsstelle: CCCCc1cc2c(o1)CN(C)CC2
7.41

###

Molecular target: Rezeptorsubtyp M₁ (Rattus norvegicus, UniProt P08482)
Construct: HIPPOCAMPUS; from tissue; host or cells: hippocampus
Sequence (P08482 1-460): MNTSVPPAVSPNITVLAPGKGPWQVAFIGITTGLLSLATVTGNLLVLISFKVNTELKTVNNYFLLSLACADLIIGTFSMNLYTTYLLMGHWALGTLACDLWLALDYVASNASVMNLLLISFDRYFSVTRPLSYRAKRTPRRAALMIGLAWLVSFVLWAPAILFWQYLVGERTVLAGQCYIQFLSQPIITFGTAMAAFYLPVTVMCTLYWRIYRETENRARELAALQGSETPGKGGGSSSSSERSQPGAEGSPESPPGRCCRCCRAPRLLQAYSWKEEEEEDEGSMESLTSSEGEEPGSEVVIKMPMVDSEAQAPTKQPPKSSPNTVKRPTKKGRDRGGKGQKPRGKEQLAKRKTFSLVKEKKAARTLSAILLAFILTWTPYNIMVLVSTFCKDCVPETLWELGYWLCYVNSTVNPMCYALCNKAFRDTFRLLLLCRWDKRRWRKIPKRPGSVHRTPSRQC
Test: Muscarinic receptor binding study, M₁ subtype, hippocampus, [³H]pirenzepine
Details: Organ HIPPOCAMPUS, [³H]Ligand Pirenzepin, kind of constant not stated
MEASURED ATTRIBUTE: Rezeptorbindung

Provide Rezeptorbindung, system Rezeptorsubtyp M₁ (Rattus norvegicus, UniProt P08482), entry CC(C)Cc1cc2c(o1)CN(C)CC2 [X=O, R₁=iso-Bu, R₂=H, R₃=H, R₄=CH₃, R₅=H]
0,8 µMol

Name the value of Rezeptorbindung reported for Cc1cc2c(o1)CN(C)CC2 [X=O, R₁=CH₃, R₂=H, R₃=H, R₄=CH₃, R₅=H] when tested on Rezeptorsubtyp M₁ (Rattus norvegicus, UniProt P08482).
8,3 µMol

Determine reported Rezeptorbindung for CCN1CCc2c(oc(C)c2C)C1 [X=O, R₁=CH₃, R₂=CH₃, R₃=H, R₄=Et, R₅=H] ; test system: Rezeptorsubtyp M₁ (Rattus norvegicus, UniProt P08482).
3,2 µMol

Look up and report measured Rezeptorbindung (Rezeptorsubtyp M₁ (Rattus norvegicus, UniProt P08482)) for the following compound: Cc1cc2c(s1)CNCC2 [X=S, R₁=CH₃, R₂=H, R₃=H, R₄=H, R₅=H]
39,6 µMol

Report Rezeptorbindung from Rezeptorsubtyp M₁ (Rattus norvegicus, UniProt P08482) testing of CCc1cc2c(o1)CN(C)CC2 [X=O, R₁=Et, R₂=H, R₃=H, R₄=CH₃, R₅=H]
1,4 µMol

Check Rezeptorsubtyp M₁ (Rattus norvegicus, UniProt P08482) data and give Rezeptorbindung for CCN1CCc2cc(C)sc2C1 [X=S, R₁=CH₃, R₂=H, R₃=H, R₄=Et, R₅=H] .
2,2 µMol

# return Rezeptorbindung of Cc1cc2c(s1)CN(C)CC2C (stereo not shown) [X=S, R₁=CH₃, R₂=H, R₃=H, R₄=CH₃, R₅=CH₃] (system: Rezeptorsubtyp M₁ (Rattus norvegicus, UniProt P08482))
5,8 µMol

Name the recorded Rezeptorbindung of Cc1cc2c(s1)CN(C)CC2 [X=S, R₁=CH₃, R₂=H, R₃=H, R₄=CH₃, R₅=H] , assay system Rezeptorsubtyp M₁ (Rattus norvegicus, UniProt P08482).
7,5 µMol

Look up and report measured Rezeptorbindung (Rezeptorsubtyp M₁ (Rattus norvegicus, UniProt P08482)) for the following compound: CCCCc1cc2c(o1)CN(C)CC2 [X=O, R₁=n-Bu, R₂=H, R₃=H, R₄=CH₃, R₅=H]
0,5 µMol

Provide Rezeptorbindung, tested on Rezeptorsubtyp M₁ (Rattus norvegicus, UniProt P08482), for CN1CCc2ccsc2C1 [X=S, R₁=H, R₂=H, R₃=H, R₄=CH₃, R₅=H] .
36,3 µMol
